Every entry's value here was drawn from patent US7074789B2.

biological target: Zap-70 (Homo sapiens); construct: Kinases are expressed as either kinase domains or full length constructs; made in house; assay: Kinase inhibition assay (33P transfer), Zap-70; format: biochemical; settings: Table 3; read-out: Zap-1
Sequence (P43403 whole entry, species assumed, the tested form may be a part): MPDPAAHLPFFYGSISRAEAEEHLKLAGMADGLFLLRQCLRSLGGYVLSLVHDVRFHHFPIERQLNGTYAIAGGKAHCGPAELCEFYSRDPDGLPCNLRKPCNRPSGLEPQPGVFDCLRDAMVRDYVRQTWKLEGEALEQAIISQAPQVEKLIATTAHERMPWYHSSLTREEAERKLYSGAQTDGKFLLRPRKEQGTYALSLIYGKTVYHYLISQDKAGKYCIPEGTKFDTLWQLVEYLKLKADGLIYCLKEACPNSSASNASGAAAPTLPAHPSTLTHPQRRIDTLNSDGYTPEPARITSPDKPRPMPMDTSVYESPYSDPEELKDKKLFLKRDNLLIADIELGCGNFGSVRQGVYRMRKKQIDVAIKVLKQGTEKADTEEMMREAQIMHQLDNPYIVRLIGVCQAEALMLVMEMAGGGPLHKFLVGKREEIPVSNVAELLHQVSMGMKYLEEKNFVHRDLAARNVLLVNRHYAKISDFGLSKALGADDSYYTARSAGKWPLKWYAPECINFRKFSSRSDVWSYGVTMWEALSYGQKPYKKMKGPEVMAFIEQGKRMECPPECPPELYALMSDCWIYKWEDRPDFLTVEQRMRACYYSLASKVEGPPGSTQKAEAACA
Property: IC50

Worked cases, answers included:
COc1ccccc1Nc1ncnc(Nc2cc(OC)c(OC)c(OC)c2)n1 > 11.7 µM
COc1cc(Nc2ncnc(N3CCN(C)CC3)n2)cc(OC)c1OC > 12.5 µM
NC(=O)c1ccc(Nc2ncnc(Nc3cc(-c4ccco4)n[nH]3)n2)cc1 > 12.4 µM
COc1cc(Nc2ncnc(-n3c(Nc4ccccc4)nc4ccccc43)n2)cc(OC)c1OC > 9.58 µM

input: What measured IC50 goes with COc1cc(Nc2ncnc(-c3c(O)[nH]c4ccccc34)n2)cc(OC)c1OC ?
output: > 11.4 µM

====

target: AKT (Homo sapiens, UniProt Q9Y243); construct: Kinases are expressed as either kinase domains or full length constructs; made in house; assay: Kinase inhibition assay (33P transfer), AKT; assay type: biochemical; conditions: Table 2, class symbols A-E; read-out: AKT3-1
Sequence (Q9Y243 whole entry, the tested form may be a part): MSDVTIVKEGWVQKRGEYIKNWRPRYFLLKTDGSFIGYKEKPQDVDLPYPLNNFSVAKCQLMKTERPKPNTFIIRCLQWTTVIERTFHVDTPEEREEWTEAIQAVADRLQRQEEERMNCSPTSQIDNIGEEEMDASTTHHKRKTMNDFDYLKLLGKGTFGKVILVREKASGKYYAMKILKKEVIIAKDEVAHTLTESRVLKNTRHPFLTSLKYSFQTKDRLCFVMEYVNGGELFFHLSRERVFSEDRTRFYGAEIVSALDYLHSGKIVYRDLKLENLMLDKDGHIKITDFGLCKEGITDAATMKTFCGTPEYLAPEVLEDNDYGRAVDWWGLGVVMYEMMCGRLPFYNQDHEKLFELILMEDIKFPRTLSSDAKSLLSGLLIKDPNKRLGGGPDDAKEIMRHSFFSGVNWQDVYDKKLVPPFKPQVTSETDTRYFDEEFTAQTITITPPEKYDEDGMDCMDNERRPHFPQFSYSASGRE
Property: IC50

Here are 3 compounds together with their reported answers.
Compound	IC50
COc1ccc(Nc2ncnc(Nc3cc(-c4ccc(C)cc4)n[nH]3)n2)c(C)c1 [Compound 1126]	> 11.6 µM
COc1cc(Nc2ncnc(-n3ccnc3Cl)n2)cc(OC)c1OC [Compound 1071]	> 12.4 µM
COC(=O)c1ccc(-c2cc(Nc3ncnc(Nc4cccc(CCC(=O)O)c4)n3)[nH]n2)cc1 [Compound 992]	5.22 to 7.62 µM

Now for a further compound.
input: Any idea what IC50 was measured for O=C(O)CCc1cccc(Nc2ncnc(Nc3cc(-c4ccco4)[nH]n3)n2)c1 [Compound 887] ?
output: 1.02 to 6.13 µM

====

target: Itk (Homo sapiens, UniProt Q08881); construct: Kinases are expressed as either kinase domains or full length constructs; made in house; test: Kinase inhibition assay (33P transfer), Itk; format: biochemical; conditions: read-out: Itk-1
Sequence (Q08881 whole entry, species assumed, the tested form may be a part): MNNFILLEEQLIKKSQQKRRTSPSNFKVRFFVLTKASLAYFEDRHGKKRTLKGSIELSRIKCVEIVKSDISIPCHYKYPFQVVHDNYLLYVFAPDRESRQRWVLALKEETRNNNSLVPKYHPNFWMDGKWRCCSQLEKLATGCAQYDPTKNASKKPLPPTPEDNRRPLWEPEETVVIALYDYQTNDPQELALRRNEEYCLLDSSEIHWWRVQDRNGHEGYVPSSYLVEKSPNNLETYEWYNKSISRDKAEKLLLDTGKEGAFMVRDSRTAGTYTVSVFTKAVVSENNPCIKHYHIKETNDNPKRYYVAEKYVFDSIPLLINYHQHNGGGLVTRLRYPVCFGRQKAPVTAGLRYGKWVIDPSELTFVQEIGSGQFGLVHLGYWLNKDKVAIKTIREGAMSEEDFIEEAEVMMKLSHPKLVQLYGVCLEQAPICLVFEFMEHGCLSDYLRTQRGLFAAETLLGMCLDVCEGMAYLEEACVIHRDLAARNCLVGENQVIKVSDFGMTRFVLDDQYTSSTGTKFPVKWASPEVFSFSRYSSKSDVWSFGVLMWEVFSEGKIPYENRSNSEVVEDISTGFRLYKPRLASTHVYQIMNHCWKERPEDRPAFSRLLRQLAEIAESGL
Property: IC50

Reference set (6 entries):
Compound	Property	Observed value
COCCCNc1ncnc(N2CCCc3cc(C)ccc32)n1	IC50	> 14.4 µM
COc1cc(Nc2ncnc(-n3ncc(-c4ccccc4)c3N)n2)cc(OC)c1OC	IC50	0.954 to 5.72 µM
COc1cc(Nc2ncnc(Nc3ccc(NC(C)=O)c(C(F)(F)F)c3)n2)cc(OC)c1OC	IC50	> 9.41 µM
COC(=O)Cc1cccc(Nc2ncnc(-n3c(NCc4ccccn4)nc4ccccc43)n2)c1	IC50	> 9.65 µM
COc1cc(Nc2ncnc(Nc3cccc(C(F)(F)F)c3)n2)cc(OC)c1OC	IC50	> 10.7 µM
O=C(O)Cc1cccc(Nc2ncnc(Nc3cccc(Br)c3)n2)c1	IC50	8.74 to 11.2 µM

Answer for every listed entry: what is its IC50? The entries follow.
1. COc1cc(Nc2ncnc(-n3c(NC4c5ccccc5CC4O)nc4ccccc43)n2)cc(OC)c1OC (centres unmarked)
2. COc1cc(Nc2ncnc(-n3c(NCc4ccc(Br)cc4)nc4ccccc43)n2)cc(OC)c1OC

output:
> 8.56 µM
> 8 µM

====

target: Lyn (Homo sapiens, UniProt P07948)
Sequence (P07948 whole entry, species assumed): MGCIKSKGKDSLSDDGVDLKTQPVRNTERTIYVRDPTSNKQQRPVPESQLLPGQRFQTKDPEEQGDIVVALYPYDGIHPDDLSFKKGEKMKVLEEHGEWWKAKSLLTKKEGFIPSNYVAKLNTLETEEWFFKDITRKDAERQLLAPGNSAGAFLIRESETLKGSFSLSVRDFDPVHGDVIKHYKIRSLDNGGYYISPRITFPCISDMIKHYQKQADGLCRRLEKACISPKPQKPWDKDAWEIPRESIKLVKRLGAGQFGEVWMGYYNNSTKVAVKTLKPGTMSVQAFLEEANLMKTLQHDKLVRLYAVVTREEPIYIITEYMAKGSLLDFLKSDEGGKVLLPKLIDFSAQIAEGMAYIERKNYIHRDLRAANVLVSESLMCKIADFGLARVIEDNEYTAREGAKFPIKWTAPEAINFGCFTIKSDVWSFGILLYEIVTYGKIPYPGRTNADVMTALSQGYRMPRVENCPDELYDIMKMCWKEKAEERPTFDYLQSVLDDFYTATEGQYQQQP
pIC50: −log10 of the molar value.
Assign pIC50 to each entry below.

See these solved cases before continuing.
COc1cc(Nc2ncnc(Nc3ccc(Br)c4ccccc34)n2)cc(OC)c1OC 5.14 to 5.30
COc1cc(Nc2ncnc(Nc3ccc(O)cc3Cl)n2)cc(OC)c1OC > 6.00

Count: 2. Required value per item: pIC50.
1. COc1cc(Nc2ncnc(-n3c(Nc4ccc5[nH]ncc5c4)nc4ccccc43)n2)cc(OC)c1OC
2. COc1cc(Nc2ncnc(-n3c(Nc4cc(C)n[nH]4)nc4ccccc43)n2)cc(OC)c1OC

output:
5.33 to 6.11
5.30 to 6.07
